B1: HDV Ribozyme (parent)
chain: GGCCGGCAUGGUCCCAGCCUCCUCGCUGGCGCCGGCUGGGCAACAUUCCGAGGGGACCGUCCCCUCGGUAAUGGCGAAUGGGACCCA

# Variants of: B1
# Protocol Text: self-cleavage, relative activity (ratio to wild type); higher = more cleavage; co-transcriptional

| Variant Designation | self-cleavage |
| --- | --- |
| G10U A51U | 0.767 |
| A42U C75U | 0.0665 |
| C18A G76U | 0.228 |
| C66A A78G | 0.538 |
| U20C G40A | 0.0941 |
| G40U U60G | 0.796 |
| G25U G80A | 0.117 |
| U9G C66G | 1.19 |
| G53C C86G | 0.903 |
| A8C G80A | 0.326 |
| G76C G80A | 0.394 |
| C13A C21U | 0.0583 |
| G50A U79C | 0.486 |
| G6A G11U | 0.095 |
| U46C G67C | 0.469 |
